- target system: Mas-related G-protein coupled receptor member X1 (Homo sapiens) (UniProt Q96LB2)
- Sequence (Q96LB2 whole entry, looked up): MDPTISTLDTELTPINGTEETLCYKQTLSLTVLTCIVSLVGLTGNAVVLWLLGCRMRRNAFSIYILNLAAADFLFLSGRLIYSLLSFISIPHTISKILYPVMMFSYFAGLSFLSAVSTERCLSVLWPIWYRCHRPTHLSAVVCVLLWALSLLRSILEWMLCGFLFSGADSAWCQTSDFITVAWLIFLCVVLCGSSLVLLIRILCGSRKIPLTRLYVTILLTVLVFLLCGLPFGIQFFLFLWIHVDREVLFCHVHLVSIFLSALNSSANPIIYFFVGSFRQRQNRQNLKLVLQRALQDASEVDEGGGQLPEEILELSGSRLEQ
- experiment description: positive allosteric modulators of MrgX1, primary screen, HEK293 cells, Fluo-4 calcium flux (AID 588675);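 also: compound read alongside a low EC10 to EC30 dose of BAM8-22 agonist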
- stated conditions: MrgX1-HEK293, Fluo-4 calcium flux, FDSS, at 10 µM
The whole screen tested about 310,000 compounds, of which about 1,900 (0.61%) were called active.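 The calls were made as follows: active = plate-corrected calcium response at least 3 library SD above typical, normal starting fluorescence, not activating the receptor alone; inactive = the rest.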 This excerpt belongs to a sample that is enriched for actives.
// one of Yes = active, No = inactive, no free text

Could you please tell me the result logged for Cc1occc(=O)c1OCc1ccc(F)cc1 in this assay? No

Test call for this molecule, please: CC(=O)N1c2ccc(S(=O)(=O)N(C)CC(=O)N(C)Cc3ccccc3)cc2CC1C (stereo not drawn) No

So what was the verdict on Cc1ccc(NC(=O)C(C)OC(=O)Cc2c[nH]c3ccccc23)cc1S(=O)(=O)N1CCOCC1 (stereo not drawn) in this test? No

So what was the verdict on COc1ccc(C2SCCN2S(=O)(=O)c2ccccc2)cc1OC (stereo not drawn) in this test? Yes

Lab log entry: COc1ccc(-c2cc(C(=O)NC(Cc3c[nH]c4ccccc34)C(=O)O)c(C)o2)cc1OC (stereo not drawn) — outcome as called in the assay? No

// return assay outcome for Cc1nc2ccccc2cc1OCc1ccc(F)cc1 Yes

For O=C(NCc1ccccc1)C1=C[C@@H](C2CCCCC2)C[C@@H](OCc2ccc(CO)cc2)O1 , which call appears in the assay record? No

Called result for CCOC(=O)c1ccccc1NC(=S)N1CCC(C(N)=O)CC1 No

What did the test return for Cc1c(C2=CCN(S(=O)(=O)c3ccc(Cl)cc3)CC2)c2ccccc2n1C ? No

Which result was noted for this molecule in the test: O=C(Nc1ccccc1N1CCN(c2ccccc2)CC1)c1cccc(F)c1 No

How did this test come out for Cn1cnnc1Sc1ccc(S(C)(=O)=O)cc1[N+](=O)[O-] ? Yes

State the result this test recorded for COc1ccc(S(=O)(=O)N2CCC(C(=O)N3CCc4ccccc4C3)CC2)cc1OC . No

Record lookup: outcome of this test for CN(C)c1ccc(Nc2c3c4c(cccc4n(C)c2=O)C(=O)c2ccccc2-3)cc1 ? No

Entry COc1ccc(Cl)cc1NC(=O)CN(C)C(=O)c1cc(-c2cccs2)nn1-c1ccccc1 : call = ? No

Identify the outcome logged in this assay for the molecule shown: CCC(C)c1ccc(O)c(/C=N/O)c1 (stereo not drawn) Yes

Dear colleague, could you share the recorded outcome for COC(=O)C1=C(C)NC2=C(C(=O)c3ccccc32)C1c1ccc(-c2ccc(C(=O)O)cc2)o1 (stereo not drawn) when you have a moment? Yes

What outcome does the record of this test show for CCCCN(CCCC)CCC(O)c1cc2c(Cl)cc(Cl)cc2c2cc(C(F)(F)F)ccc12 (stereo not drawn) ? No

Recorded test call requested for CNCC(O)c1ccc(O)c(O)c1 (stereo not drawn) No

Just curious, what result did CCOc1ccc(NC(=O)N2CCN(CC)CC2)cc1 get here? No

Each molecule tested received a call. Report the one for Cc1c(C(=O)N2CCCc3ccccc32)sc2nc(-c3ccccc3)cn12 . Yes

Recorded call for COc1ccc(CCNC(=O)C(=O)NCc2ccccc2C)cc1OC ? No

Could you please tell me the result logged for C/C(=N\NS(=O)(=O)c1cccc([N+](=O)[O-])c1)c1cc2ccccc2o1 in this assay? Yes

Test call, this molecule: O=C(NC(Cc1ccccc1)C(=O)O)/C(=C\c1ccccc1)NC(=O)c1ccco1 (stereo not drawn) No

Check the results log: what was the call for COC(=O)c1ccc(NC(=O)C(C)N2C(=O)c3ccccc3C2=O)cc1 (stereo not drawn) ? No

Any idea what this test logged for COc1ccc(C2CC(=O)n3c(nc4ccccc43)S2)cc1OC (stereo not drawn) ? No

Give the logged outcome of this assay for the following molecule: COc1ccc(-c2ccc(Nc3ccc(S(=O)(=O)N4CCCC4)cc3)nn2)cc1OC No

Would you mind telling me which call this test gave Cc1ccc2c(c1)C1CN(C)CCC1N2S(=O)(=O)c1ccc(Oc2ccc([N+](=O)[O-])cc2)cc1 (stereo not drawn) ? No

Assay result, entry CCOc1ccccc1NS(=O)(=O)c1c[nH]c(C(=O)OC)c1 — outcome? No

Hi team, can someone confirm the assay call for CCOC(=O)C1(Cc2ccccc2C)CCCN(S(C)(=O)=O)C1 (stereo not drawn) ? No

For C/C(=N\NC(=S)Nc1ccc(C)cc1)c1cc2ccccc2o1 , what call appears in the results of this test? No

Entry CCOc1ccc(NC(=O)N2CC=C(n3c(=O)[nH]c4ccccc43)CC2)cc1 : call = ? Yes

What classification did CCOc1ccc(NC(=O)CCS(=O)(=O)c2ccc3c(c2)CCCN3C(=O)CC)cc1 end up with in this test? No

Could you kindly confirm the outcome this assay logged for CC(C)N1C(=S)SC(C)(C)C1n1oc(=O)n(-c2ccc(Cl)c(Cl)c2)c1=O (stereo not drawn) ? No

Kindly provide the recorded test outcome for the following molecule: CSc1cccc(NC(=O)C2CCCN2S(=O)(=O)c2ccc3c(c2)CCC(=O)N3)c1 (stereo not drawn) No

Which outcome did this test record for the molecule Cc1cc(S(=O)(=O)NC2CCCC2)ccc1-n1cnnn1 ? No

Could you please tell me the result logged for CC[C@@H](C)[C@@H](C(=O)N1CCN(C(=O)OC(C)(C)C)CC1)n1cc(CCC(=O)O)nn1 in this assay? No

Entry Cc1ccccc1-n1nc(SCC(=O)O)sc1=S : call = ? No

Could you check what this test reported for COC(=O)c1c(C)cc(O)c(C)c1O ? No

Recorded test call requested for CCN(CC(=O)NCc1cccs1)C(=O)c1cccc(S(=O)(=O)Nc2ccccc2OC)c1 No

Record lookup: outcome of this test for C=CCn1cc(Cl)cc(C(=O)Nc2ccccc2)c1=O ? No

Answer briefly: the call reported for O=C(ON=C1CCN(S(=O)(=O)c2ccccc2)CC1)c1ccc(Cl)cc1 in this assay. No

Record lookup: outcome of this test for Cc1ccc(C2C3=C(Nc4[nH]n(-c5ccccc5)c(=O)c42)c2ccccc2C3=O)cc1 (stereo not drawn) ? No

Name the outcome recorded for Cc1cccc(C)c1NC(=O)N1CC=C(n2c(=O)[nH]c3ccccc32)CC1 in the assay. No
